Data origin, for the record: paper PMC3038857

Test system: CYP1A1
Test: CLZD_CYP1A1: Change in expression of CYP1A1 (primary human hepatocytes)
Type: cell-based
Details: 24 hr
Experimental: This is a collection of multiplexed gene expression assays focused on Phase I and II xenobiotic metabolizing enzymes and transporters. Human primary cell cultures were treated with chemicals at 5 concentrations (0.004-40 [drawing 42] M) for 6, 24 and 48 hr. Concentration- and time-response profiles of chemicals were measured by the expression of key nuclear receptor target genes, activities of CYP1A enzymes (EROD), and cell morphology. […]
value.type: CLZD_CYP1A1_24

structure.notation: CNc1cnn(-c2cccc(C(F)(F)F)c2)c(=O)c1Cl
target.system: CYP1A1
CLZD_CYP1A1_24: 5.028

Exercise: Name the reported CLZD_CYP1A1_24 value associated with the molecule CCc1ccc(C(=O)NN(C(=O)c2cc(C)cc(C)c2)C(C)(C)C)cc1
Solution: 5.222

Exercise: GET /values?readout=CLZD_CYP1A1_24&item= C=C(C)[C@H]1Cc2c(ccc3c2O[C@@H]2COc4cc(OC)c(OC)cc4[C@@H]2C3=O)O1
Solution: 5.398

Exercise: Entry under review: CCNc1nc(Cl)nc(NCC)n1 . Reported CLZD_CYP1A1_24?
Solution: 5.018

Exercise: Fill in: CLZD_CYP1A1_24 of CCc1nn(C)c(C(=O)NCc2ccc(C(C)(C)C)cc2)c1Cl is ___
Solution: 4.87
